// provenance: patent US20260199323A1

System: LNcap
ASSAY PROTOCOL: CCK-8 tumor cell proliferation, LNcap
Assay type: cell-based, Human
EXPERIMENTAL CONDITIONS: Homo sapiens; Table 19, IRAK4 inhibitor based; Lncap; read-out: IC50 inhibiting proliferation of tumor cells, Lncap
Experimental: The tumor cells used herein were cultured in a cell culture medium listed in table 4 at 37° C. in an incubator with 5% CO2. […] IC50 values of the compounds of the present disclosure (including the compounds in Tables 1 and 3, and compounds of examples) were measured using the Meilun Cell Counting Kit-8 kit from Dalian Meilun Biotech Co., Ltd. Assay details are as follows: tumor cells were seeded in a 96-well plate at a density listed in Table 5. […]
Entries annotated with measured IC50

Some entries whose results are on file:
>  <COMPOUND>
O=C1CCC(N2C(=O)c3ccc(CN4CCC(n5cc(NC(=O)c6coc(-c7ccnc(NCC(F)(F)F)c7)n6)c(C(F)F)n5)CC4)cc3C2=O)C(=O)N1 (stereo not drawn)

>  <TARGET OR TEST SYSTEM>
LNcap

>  <IC50>
100 to 500 nM

$$$$
>  <COMPOUND>
O=C1CCC(N2C(=O)c3ccc(CN4CCN(c5ccc(-n6cc(NC(=O)c7coc(-c8ccnc(NCC(F)(F)F)c8)n7)c(C(F)F)n6)cc5)CC4)cc3C2=O)C(=O)N1 (stereo not drawn)

>  <TARGET OR TEST SYSTEM>
LNcap

>  <IC50>
100 to 500 nM

$$$$
>  <COMPOUND>
O=C1CCC(N2Cc3cc(CN4CCC(n5cc(NC(=O)c6coc(-c7ccnc(NCC(F)(F)F)c7)n6)c(C(F)F)n5)CC4)ccc3C2=O)C(=O)N1 (stereo not drawn)

>  <TARGET OR TEST SYSTEM>
LNcap

>  <IC50>
< 50 nM

$$$$

*Q* Given the entry O=C1CCC(N2Cc3c(ccc(CN4CCC(n5cc(NC(=O)c6coc(-c7ccnc(NCC(F)(F)F)c7)n6)c(C(F)F)n5)CC4)c3F)C2=O)C(=O)N1 (stereo not drawn) , report its measured IC50.
*A* < 50 nM

*Q* Can you check O=C1CCC(N2Cc3cc(CN4CCC(n5cc(NC(=O)c6coc(-c7ccnc(NCC8CC8)c7)n6)c(C(F)F)n5)CC4)cc(F)c3C2=O)C(=O)N1 (stereo not drawn) next?
*A* < 50 nM

*Q* Can you check O=C1CCC(N2Cc3cc(CN4CCC(n5cc(NC(=O)c6coc(-c7ccnc(NCC8CC8)c7)n6)c(C(F)F)n5)CC4)c(F)cc3C2=O)C(=O)N1 (stereo not drawn) next?
*A* < 50 nM

* * *

Tested on: CCRF-CEM
ASSAY PROTOCOL: CCK-8 tumor cell proliferation, CCRF-CEM
Type: cell-based, Human
EXPERIMENTAL CONDITIONS: Homo sapiens; Table 18, FAK inhibitor based; CCRF-CEM; read-out: IC50 inhibiting proliferation of tumor cells, CCRF-CEM
MEASURE NAME: IC50

*Q* Given the entry CNC(=O)c1ccccc1Nc1cc(Nc2ccc(N3CCN(Cc4ccc5c(c4)CN(C4CCC(=O)NC4=O)C5=O)CC3)cc2OC)ncc1C(F)(F)F (stereo not drawn) [GT-03014] , report its measured IC50.
*A* < 0.05 µM

*Q* Can you check CS(=O)(=O)c1cccc(CNc2nc(Nc3ccc(N4CCN(Cc5ccc6c(c5F)CN(C5CCC(=O)NC5=O)C6=O)CC4)cc3)ncc2C(F)(F)F)c1 (stereo not drawn) [GT-03817] next?
*A* < 0.05 µM

*Q* Can you check CNC(=O)c1ccccc1Nc1cc(Nc2ccc(N3CCC(N4CCN(Cc5ccc6c(c5F)CN(C5CCC(=O)NC5=O)C6=O)CC4)CC3)cc2OC)ncc1C(F)(F)F (stereo not drawn) [GT-03595] next?
*A* 0.1 to 0.5 µM

*Q* Can you check CNC(=O)c1ccccc1Nc1cc(Nc2cc(C)c(C3CCN(Cc4ccc5c(c4F)CN(C4CCC(=O)NC4=O)C5=O)CC3)cc2OC(C)C)ncc1C(F)(F)F (stereo not drawn) [GT-04079] next?
*A* < 0.05 µM

*Q* Can you check CNC(=O)c1ccccc1Nc1cc(Nc2ccc(N3CCC(N4CCN(Cc5cc6c(cc5F)C(=O)N(C5CCC(=O)NC5=O)C6)CC4)CC3)cc2OC)ncc1C(F)(F)F (stereo not drawn) [GT-03596] next?
*A* 0.1 to 0.5 µM

*Q* Can you check CS(=O)(=O)c1cccc(CNc2nc(Nc3ccc(N4CCN(Cc5ccc6c(c5)CN(C5CCC(=O)NC5=O)C6=O)CC4)cc3)ncc2C(F)(F)F)c1 (stereo not drawn) [GT-03792] next?
*A* < 0.05 µM

*Q* Can you check CNC(=O)c1ccccc1Nc1cc(Nc2ccc(N3CCOCC3)cc2OC)ncc1C(F)(F)F [PND-1186, reference compound] next?
*A* 0.5 to 1 µM

*Q* Can you check CNC(=O)c1ccccc1Nc1cc(Nc2ccc(N3CCC(N4CCN(Cc5ccc6c(c5)CN(C5CCC(=O)NC5=O)C6=O)CC4)CC3)cc2OC)ncc1C(F)(F)F (stereo not drawn) [GT-03266] next?
*A* 0.1 to 0.5 µM

*Q* Can you check CN(c1nccnc1CNc1nc(Nc2ccc(N3CCC(N4CCN(Cc5ccc6c(c5)CN(C5CCC(=O)NC5=O)C6=O)CC4)CC3)cc2)ncc1C(F)(F)F)S(C)(=O)=O (stereo not drawn) [GT-03706] next?
*A* 0.1 to 0.5 µM

*Q* Can you check CNC(=O)c1ccccc1Nc1cc(Nc2ccc(N3CCC(N4CCN(Cc5cc(F)c6c(c5)CN(C5CCC(=O)NC5=O)C6=O)CC4)CC3)cc2OC)ncc1C(F)(F)F (stereo not drawn) [GT-03597] next?
*A* 0.1 to 0.5 µM

*Q* Can you check CNC(=O)c1ccccc1Nc1cc(Nc2cc(C)c(C3CCN(Cc4cc5c(cc4F)C(=O)N(C4CCC(=O)NC4=O)C5)CC3)cc2OC(C)C)ncc1C(F)(F)F (stereo not drawn) [GT-04080] next?
*A* < 0.05 µM

*Q* Can you check CNC(=O)c1ccccc1Nc1cc(Nc2ccc(N3CCC(NCc4ccc5c(c4)CN(C4CCC(=O)NC4=O)C5=O)CC3)cc2OC)ncc1C(F)(F)F (stereo not drawn) [GT-03213] next?
*A* 0.1 to 0.5 µM
